tested.target: α-glucosidase (yeast, type I) (Saccharomyces cerevisiae)
Construct: purchased Sigma Chemicals, U.S.A
test.details: α-glucosidase inhibitory activity, p-nitrophenyl-α-D-glucopyranoside as substrate
Type: biochemical
reported.property: pIC50
Answer as the number alone; pIC50 is minus log10 of concentration in mol/L.

Prompt line: API: value(readout= pIC50, system= α-glucosidase (yeast, type I) (Saccharomyces cerevisiae), query= CC(Cc1ccccc1)N[C@H]1C=C(CO)[C@@H](O)[C@H](O)[C@H]1O (stereo partly shown) )
Response line: 6.89

###

tested.target: α-glucosidase (yeast, type I) (Saccharomyces cerevisiae, UniProt P53341)
Construct: purchased Sigma Chemicals, U.S.A
Sequence (P53341 whole entry): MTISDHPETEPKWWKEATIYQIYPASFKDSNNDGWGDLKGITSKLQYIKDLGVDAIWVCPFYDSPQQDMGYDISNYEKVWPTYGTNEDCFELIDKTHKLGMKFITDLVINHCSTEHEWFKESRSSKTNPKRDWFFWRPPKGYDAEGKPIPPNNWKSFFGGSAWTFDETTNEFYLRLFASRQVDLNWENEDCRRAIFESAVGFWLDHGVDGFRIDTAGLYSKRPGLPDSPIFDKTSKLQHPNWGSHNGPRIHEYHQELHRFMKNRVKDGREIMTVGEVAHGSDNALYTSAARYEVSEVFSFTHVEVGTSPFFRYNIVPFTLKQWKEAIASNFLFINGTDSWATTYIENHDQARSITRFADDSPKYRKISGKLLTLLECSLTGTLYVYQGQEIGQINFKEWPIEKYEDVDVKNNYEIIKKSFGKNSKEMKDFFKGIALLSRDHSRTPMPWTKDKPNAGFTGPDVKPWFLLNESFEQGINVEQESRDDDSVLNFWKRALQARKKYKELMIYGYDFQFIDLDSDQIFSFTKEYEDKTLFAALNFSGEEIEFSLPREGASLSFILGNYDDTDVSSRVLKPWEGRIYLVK
test.details: α-glucosidase inhibitory activity, p-nitrophenyl-α-D-glucopyranoside as substrate
Type: biochemical
test.context: Table 1; α-glucosidase (yeast); pH 6.8, 37° C., 15 minutes; read-out: IC50 (molar concentration required for 50% inhibition)
Attribute: log10 IC50
Hey, these are logged values: log10 of IC50, µM being the unit before logging.

compound="CC(CN[C@H]1C=C(CO)[C@@H](O)[C@H](O)[C@H]1O)c1ccccc1 (some centres unmarked)" tested_target="α-glucosidase (yeast, type I) (Saccharomyces cerevisiae, UniProt P53341)" reported_property="log10 IC50" measured_number=1.11
compound=OCC1=C[C@H](NCc2ccco2)[C@H](O)[C@@H](O)[C@@H]1O tested_target="α-glucosidase (yeast, type I) (Saccharomyces cerevisiae, UniProt P53341)" reported_property="log10 IC50" measured_number=2.18
compound=OCC1=C[C@H](NC[C@H](O)[C@H](O)[C@H](O)CO)[C@H](O)[C@@H](O)[C@@H]1O tested_target="α-glucosidase (yeast, type I) (Saccharomyces cerevisiae, UniProt P53341)" reported_property="log10 IC50" measured_number=1.95
compound="OCC1=C[C@H](NC(CO)[C@@H](O)[C@H](O)[C@H](O)CO)[C@H](O)[C@@H](O)[C@@H]1O (some centres unmarked)" tested_target="α-glucosidase (yeast, type I) (Saccharomyces cerevisiae, UniProt P53341)" reported_property="log10 IC50" measured_number=2.04
compound="CC(N[C@H]1C=C(CO)[C@@H](O)[C@H](O)[C@H]1O)c1ccccc1 (some centres unmarked)" tested_target="α-glucosidase (yeast, type I) (Saccharomyces cerevisiae, UniProt P53341)" reported_property="log10 IC50" measured_number=1.11

Next compound, please.
Prompt line: Field request: log10 IC50 | item: OCC1=C[C@H](NCc2cccs2)[C@H](O)[C@@H](O)[C@@H]1O
Response line: 1.58

###

tested.target: maltase (porcine intestinal mucosa)
test.details: inhibitory activity against maltase, 0.05M maltose as substrate
test.context: Table 2, read-out: IC50 (molar concentration required for 50% inhibition)
reported.property: IC50 (µM)
Number in µM, nothing else.

compound="OCC1=C[C@H](NC(CO)[C@@H](O)[C@H](O)[C@@H](O)CO)[C@H](O)[C@@H](O)[C@@H]1O (stereo partly shown) [drawing 50]" reported_property=IC50 measured_number=14
compound="COc1ccccc1C(O)CN[C@H]1C=C(CO)[C@@H](O)[C@H](O)[C@H]1O (stereo partly shown) [drawing 47]" reported_property=IC50 measured_number=3.1
compound="OCC1=C[C@H](NC(CO)CO)[C@H](O)[C@@H](O)[C@@H]1O [drawing 49]" reported_property=IC50 measured_number=14
compound="OCC1=C[C@H](NCC(O)COc2ccccc2)[C@H](O)[C@@H](O)[C@@H]1O (stereo partly shown)" reported_property=IC50 measured_number=24
compound="OCC1=C[C@H](NCCCCc2ccccc2)[C@H](O)[C@@H](O)[C@@H]1O [drawing 40]" reported_property=IC50 measured_number=80
compound="OCC1=C[C@H](NCC(O)c2ccccc2)[C@H](O)[C@@H](O)[C@@H]1O (stereo partly shown) [drawing 41]" reported_property=IC50 measured_number=3.2

Prompt line: Item: OCC1=C[C@H](NCCCc2ccccc2)[C@H](O)[C@@H](O)[C@@H]1O [drawing 39] Test system: maltase (porcine intestinal mucosa) Read-out: IC50 Value: ?
Response line: 20
